All values here come from ChEMBL document CHEMBL4732180.

Experiment: Lipophilicity, logP of compound
Assay type: physicochemical
Conditions: octanol/water
Measurement kind: logP

> print(dat)
                                   molecule  assay.value
1  NS(=O)(=O)c1ccc(-c2cc(C(=O)N3CC4CC4C3)nn2-c2ccc(Cl)cc2)cc1 (stereo not drawn)          3.1
2  CCC(=O)c1cc(-c2ccc(Cl)cc2)n(-c2ccc(S(N)(=O)=O)cc2)c1C          4.7
3  CCC(=O)c1cc(-c2ccc(S(N)(=O)=O)cc2)n(-c2ccc(Cl)cc2)n1          3.8

* * *

Experiment: Tmax in Wistar rat plasma at 3 mg/kg, po up to 5 hrs by HPLC-MS/MS analysis
Format: ADME, organism-based
Measurement kind: Tmax (h)
Write down the numeric answer in h and omit the unit.

Prompt: Sample NS(=O)(=O)c1ccc(-c2cc(C(=O)N3CC4CC4C3)nn2-c2ccc(Cl)cc2)cc1 (stereo unspecified) — what was its Tmax?
Completion: 2

* * *

Test: Intrinsic clearance in mouse liver microsome at 1 to […] up to 40 mins
Format: ADME
Details: liver microsomes, dose 1-2.5 µM, read-out: CLH
Measurement kind: microsomal CLint at […] (µL/min/mg)

[a] NS(=O)(=O)c1ccc(-c2cc(C(=O)N3CC4CC4C3)nn2-c2ccc(Cl)cc2)cc1 (stereo not drawn)
[b] CCC(=O)c1cc(-c2ccc(Cl)cc2)n(-c2ccc(S(N)(=O)=O)cc2)c1C
Prompt: Sorting by microsomal CLint at […] in descending order, would a or b appear first? Reply with the label of the item you choose.
Completion: b
(b: 26 µL/min/mg, a: 5 µL/min/mg)

* * *

Test: Intrinsic clearance in rat liver microsome at 1 to […] up to 40 mins
Type: ADME
Conditions: liver microsomes, dose 1-2.5 µM, read-out: CLH
Measurement kind: microsomal CLint at […] (µL/min/mg)

> print(dat)
                                   compound         measurement.kind  readout.unit  assay.value
1  NS(=O)(=O)c1ccc(-c2cc(C(=O)N3CC4CC4C3)nn2-c2ccc(Cl)cc2)cc1 (stereo not drawn)  microsomal CLint at […]     µL/min/mg           10

[I] CCC(=O)c1cc(-c2ccc(S(N)(=O)=O)cc2)n(-c2ccc(Cl)cc2)n1
[II] CCC(=O)c1cc(-c2ccc(Cl)cc2)n(-c2ccc(S(N)(=O)=O)cc2)c1C
Prompt: Of I and II , which carries the smaller reported microsomal CLint at […] figure? Respond using the label that marks the chosen record.
Completion: II
(II: 10 µL/min/mg, I: 20 µL/min/mg)

* * *

Assay: Volume of distribution in Wistar rat plasma at 3 mg/kg, iv up to 5 hrs by HPLC-MS/MS analysis
Format: ADME, organism-based
Measurement kind: Vd (L/kg)
Answer with a number only, understood to be in L/kg.

Prompt: Entry NS(=O)(=O)c1ccc(-c2cc(C(=O)N3CC4CC4C3)nn2-c2ccc(Cl)cc2)cc1 (stereo unspecified) : reported Vd = ?
Completion: 1.17

* * *

Test: Intrinsic clearance in human liver microsome at 1 to […] up to 40 mins
Type: ADME
Conditions: liver microsomes, dose 1-2.5 µM, read-out: CLH
Measurement kind: microsomal CLint at […] (µL/min/mg)

> print(dat)
                                   compound  readout.unit  assay.value
1  NS(=O)(=O)c1ccc(-c2cc(C(=O)N3CC4CC4C3)nn2-c2ccc(Cl)cc2)cc1 (stereo not drawn)     µL/min/mg            4

[1] CCC(=O)c1cc(-c2ccc(S(N)(=O)=O)cc2)n(-c2ccc(Cl)cc2)n1
[2] CCC(=O)c1cc(-c2ccc(Cl)cc2)n(-c2ccc(S(N)(=O)=O)cc2)c1C
Prompt: Dear colleague, could you let me know whether 1 or 2 has the lower recorded microsomal CLint at […]? Thanks. Write down the label attached to your selection.
Completion: 2
(2: 3 µL/min/mg, 1: 18 µL/min/mg)
